Catalogue of abundance fitness readings, one per entry.
B1: Double-stranded RNA-binding protein Staufen homolog 1, residues 183 to 249; numbered along this chain, O95793 (parent)
chain: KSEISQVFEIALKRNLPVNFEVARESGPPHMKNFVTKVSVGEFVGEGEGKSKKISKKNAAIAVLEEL

variants of: B1; assay: abundance fitness (aPCA) (normalised: wild type 0, dead -1); higher = more abundant; growth selection in yeast, the domain comes from the species named; details: Homo sapiens
Note: the reply should be a number with no unit written.

1. A11E : -0.822
2. E9V : -0.517
3. E46M : 0.028
4. N33S : -0.016
5. P17S : -0.008

abundance fitness in this record for S2H : -0.546

The measured abundance fitness associated with I61P reads -0.556
